We begin with a simple list: items and their reported z-score.
PROTOCOL DESCRIPTION: E. coli acrAB mutant growth effects, primary screen, E. coli filamentation inducers, strain DRC39, OD650, 48 h (AID 1179);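 note: screen aims at cell division blockers that make cells filament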
MEASUREMENT PARAMETERS: E. coli DRC39 delta-acrAB growth, higher = more signal, called active from +8 up or from −8 down
The source made the active and inactive calls.
QUANTITY: z-score

>>> df
                                   compound    observed_result
0  CCN1C(=O)[C@H]2[C@H]3[C@H](O)[C@H](O)CC(=NOC(C)CN4CCCCc5nc(C)c(C)cc54)[C@@H]3CC[C@H]2C1=O (some centres not stated)     1.2 (inactive)
1  C=CC[C@@H]1C=C[C@H](ON=C(C)CCN2CCc3nc(CC)c(CC)cc3C2)[C@@H](CO)O1   0.138 (inactive)
2  CCN1C(=O)[C@H]2[C@H]3[C@H](O)[C@H](O)CC(=NO[C@@H]4O[C@H](CO)[C@@H](O)[C@H](O)[C@H]4O)[C@@H]3CC[C@H]2C1=O   0.117 (inactive)
3  COCCCNC(=O)[C@]1(CCC(=O)OC(C)(C)C)N=C(c2ccc(OCCCO)cc2)O[C@@H]1c1ccccc1N=[N+]=[N-]  0.0528 (inactive)
4  Cc1cc(C)c(-c2cc([C@H](C)ON=C3[C@H]4CCn5c(=O)n(-c6ccccc6)c(=O)n5[C@H]4[C@H](O)[C@@H]4O[C@H]34)on2)c(C)c1   0.421 (inactive)
5  O=C1[C@H]2[C@H]3[C@H](O)[C@H](O)CC(=NO[C@@H]4O[C@H](CO)[C@@H](O)[C@H](O)[C@H]4O)[C@@H]3CC[C@H]2C(=O)N1c1ccc(F)cc1F   0.391 (inactive)
6   COC(=O)CC=C[C@@H](C)[C@H](OC)c1ccccc1Br  -0.129 (inactive)

====

PROTOCOL DESCRIPTION: Plasmodium falciparum growth inhibition, primary screen, strain 3D7, DAPI fluorescence, 100 nL (AID 1184);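 note: parasites grown inside human red blood cells in medium with human serum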
MEASUREMENT PARAMETERS: P. falciparum 3D7 growth, 3 d, higher = more signal

COMPOUND	z-score
O=C1c2ccccc2[C@@]2(Cc3ccccc3N(C3CC3)C2=O)[C@H](c2ccc(CO)cc2)N1Cc1ccccc1C(F)(F)F	-1.42
CCOC(=O)[C@H](Cc1ccccc1)NC(=O)CCC1CC(OC(=O)NCCc2ccc(F)cc2)CC2(CCCC(COC(=O)NCC(c3ccccc3)c3ccccc3)O2)O1 (some centres undefined)	-1.39
COCCNC(=O)OCC1CCCC2(CC(OC(=O)NCCc3ccc(F)cc3)CC(CCC(=O)N[C@@H](C)C(=O)OC)O2)O1 (some centres undefined)	-1.82
CCCNC(=O)OC[C@H]1O[C@H](CCON=C2[C@H]3CCn4c(=O)n(-c5ccccc5)c(=O)n4[C@H]3[C@H](O)[C@@H]3O[C@H]23)C=C[C@@H]1Oc1ccc(OC)cc1	-1.01
COC(=O)[C@@]1(Cc2ccccc2)[C@H]2c3cc(C(=O)N4CCCC4)n(Cc4ccccn4)c3C[C@H]2CN1C(=O)c1ccccc1	-1.5
COCCOC(=O)N1C(=O)[C@@]2(c3cc(C#CC4(O)CCCCCC4)ccc31)[C@H](C(=O)N1CCN(c3ncccn3)CC1)[C@H]1C(=O)O[C@H](c3ccccc3)[C@H](c3ccccc3)N1[C@@H]2c1ccc(OCCO)cc1	-2.34
CC(C)(C)N1CC=CC23O[C@@H]4C=CCCOC(=O)C4[C@H]2C(=O)N(CCCCCO)[C@@H]3C1=O (some centres undefined)	0.519
O=C1[C@H]2[C@H]3[C@H](O)[C@H](O)CC(=NO[C@@H]4O[C@H](CO)[C@@H](O)[C@H](O)[C@H]4O)[C@@H]3CC[C@H]2C(=O)N1Cc1ccccc1	-0.165
COC(=O)[C@@H]1CCCN1C(=O)[C@@H](C)CO	-1.35
COCCCNC(=O)[C@@]1(CCS(=O)(=O)c2ccccc2)N=C(c2ccc(OCCCO)cc2)O[C@H]1c1ccccc1	-1.62
CC(C)(C)N1C(=O)[C@H]2[C@H]3[C@H](O)[C@H](O)CC(=NOCc4ccccc4)[C@@H]3CC[C@H]2C1=O	0.281
[N-]=[N+]=NCc1ccccc1[C@@H]1OC(c2ccc(OCCCO)cc2)=N[C@]1(Cc1ccccc1)C(=O)N1CCOCC1	-2.33
CN(C)CCCNC(=O)[C@@H]1c2ccccc2C(=O)N(Cc2cc(F)cc(C(F)(F)F)c2)[C@H]1c1ccc(CO)cc1	-0.1
C=CCC(OC(C)=O)[C@@H]1[C@@H](N(Cc2cc3ccccc3o2)C(=O)Cc2ccc(F)cc2)c2cc(OCCCO)ccc2N1C(=O)Cc1ccc(OC)cc1 (some centres undefined)	0.163

====

SYSTEM NAME: E3 ubiquitin-protein ligase XIAP (Homo sapiens) (UniProt P98170)
Sequence (P98170 whole entry, looked up): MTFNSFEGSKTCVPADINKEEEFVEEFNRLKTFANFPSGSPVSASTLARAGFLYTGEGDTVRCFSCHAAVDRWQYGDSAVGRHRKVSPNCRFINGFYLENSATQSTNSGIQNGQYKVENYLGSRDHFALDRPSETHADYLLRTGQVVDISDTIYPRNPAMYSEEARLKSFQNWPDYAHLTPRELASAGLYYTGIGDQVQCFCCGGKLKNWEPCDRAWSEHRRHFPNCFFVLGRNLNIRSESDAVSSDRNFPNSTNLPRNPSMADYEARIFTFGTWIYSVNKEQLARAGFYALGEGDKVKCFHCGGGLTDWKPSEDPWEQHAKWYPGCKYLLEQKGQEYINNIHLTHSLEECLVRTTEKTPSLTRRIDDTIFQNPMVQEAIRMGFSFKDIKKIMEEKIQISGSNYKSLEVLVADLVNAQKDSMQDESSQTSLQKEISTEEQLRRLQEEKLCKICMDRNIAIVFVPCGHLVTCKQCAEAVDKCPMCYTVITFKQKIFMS
PROTOCOL DESCRIPTION: XIAP binders, primary screen, biophysical, small-molecule microarray, fluorescence 635 nm (AID 1181);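 note: score merges 667 nm emission and signal to noise over triplicate slides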
MEASUREMENT PARAMETERS: small-molecule microarray binding, higher = more signal
QUANTITY: composite z-score

MOLECULE	OBSERVED RESULT
Cc1ccc(S[C@]2(C(=O)NCC(F)(F)F)CC(=O)N(Cc3ccccc3Cl)[C@@H]2c2ccc(CO)cc2I)cc1	0.0256
O=C1[C@H]2[C@H]3[C@H](O)[C@H](O)CC(=NO[C@@H]4O[C@H](CO)[C@@H](O)[C@H](O)[C@H]4O)[C@H]3CC[C@H]2C(=O)N1C1CCCCC1	0.155
CC(C)N1CC=CC23O[C@@H]4C=CCCOC(=O)C4[C@H]2C(=O)N(CCCCCCO)[C@@H]3C1=O (stereo not given in full)	0.694
CC(C)[C@@H](OCc1ccccc1)[C@H](C)C=NO[C@H](C)c1cn([C@H](CO)Cc2ccccc2)nn1	-0.0287
COc1ccc(OC[C@H]2Cc3c(-c4ccccc4)nc4c(c3CO2)CN(CCOc2ccccc2)CC4)cc1	-0.111
CC(C)OC(=O)C=C1C[C@@H](c2ccc(C#N)cc2)O[C@@H](c2ccc(C#N)cc2)O1	-0.0994
COc1ccc([Si](C)(C)[C@@H]2[C@@H](CC(=O)N3CCC[C@H]3CO)O[C@]3(C(=O)N(Cc4cccc(N5CCC5=O)c4)c4ccccc43)[C@H]2C)cc1	-0.152
NC(=O)NCC#Cc1ccc2c(c1)[C@]1(C(=O)N2)[C@H](c2ccc(O)cc2)N2[C@H](c3ccccc3)[C@H](c3ccccc3)OC(=O)[C@H]2[C@@H]1C(=O)N1CCCCCCC1	-0.0925
CCN1C(=O)[C@H]2[C@H]3[C@H](O)[C@H](O)CC(=NO[C@@H]4O[C@H](CO)[C@@H](O)[C@H](O)[C@H]4O)[C@@H]3CC[C@H]2C1=O	0.0623
CC=CC1=C(CO)[C@H](O)[C@H]2O[C@H]2[C@H]1O	0.0774
C[C@@H]1C=CCC(=O)OC[C@H](C)C(=O)N2CCC[C@H]2C(=O)OC1	-0.0416
CO[C@@H]1COC(=O)CC=C[C@@H](C)[C@@H]2C=C[C@H](O)[C@@H](COC(=O)CCC[C@H]1C)O2	-0.12
CC(CCN1CCCCc2nc(C)c(C)cc21)=NOC(C)CN1CCCc2nc(C)c(C)cc21 (stereo not given)	1.56
CC(C)CON=C1[C@H]2CCn3c(=O)n(-c4ccccc4)c(=O)n3[C@H]2[C@H](O)[C@@H]2O[C@H]12	-0.032
C[C@@H](c1ccccc1)N1C(=O)[C@H]2[C@H]3[C@H](O)[C@H](O)CC(=NNC(=O)OCc4ccccc4)[C@H]3CC[C@H]2C1=O	-0.163
CCCNC(=O)OC[C@H]1O[C@H](CCON=CC[C@@H]2C=C[C@H](OC(C)=O)[C@@H](COC(C)=O)O2)C=C[C@@H]1Oc1ccc(OC)cc1	-0.128
CCOC(=O)C[C@H]1[C@H](OC(=O)c2ccc(C(=O)c3ccccc3)cc2)[C@@H](NC(=O)c2ccc(-c3ccccc3)cc2)c2cc(OCCCO)ccc2N1C(=O)c1ccc2ccccc2n1	0.119
COCCNC(=O)OCC1CCCC2(CC(OC(=O)NCCc3ccc(F)cc3)CC(CCC(=O)N[C@@H](C)C(=O)OC)O2)O1 (stereo not given in full)	-0.216
CC(=O)OC[C@H]1O[C@H](C#CCCCc2ccccc2)C=C[C@@H]1OC(C)=O	0.072
CCOC(=O)NN=C1C[C@@H](O)[C@@H](O)[C@@H]2[C@@H]3C(=O)N(C4CCCCC4)C(=O)[C@@H]3CC[C@H]12	-0.0246
O=C(CS)NCCCCCNC(=O)[C@H]1C[C@H]2C(=O)N3CCC[C@H]3C(=O)N2[C@H]1c1cccc(OCCO)c1	0.0785
Cc1ccc(F)cc1S(=O)(=O)N[C@@H]1CCN(Cc2ccc(CC(C)C)cc2)C1	-0.106
CC[C@@H](c1ccccc1)n1c(=O)n2n(c1=O)[C@H]1[C@H](O)[C@@H]3O[C@@H]3C(=NOCC(C)C)[C@H]1CC2	-0.0525
CCc1cc2c(nc1CC)CCN(CCC(C)=NOC[C@@H](O)[C@H]1O[C@@H]3OC(C)(C)O[C@@H]3[C@H]1O)C2	-0.365
CCOC(=O)[C@H](CC(C)C)NC(=O)CCC1CC(OC(=O)NCc2cccc3ccccc23)CC2(CCCC(COC(=O)NCCN3CCOCC3)O2)O1 (stereo not given in full)	-0.0143
CCOC(=O)[C@H](Cc1ccccc1)NC(=O)CCC1CC(OC(=O)NCc2ccc3c(c2)OCO3)CC2(CCCC(COC(=O)NCc3cccc(C(F)(F)F)c3)O2)O1 (stereo not given in full)	0.309
O=C1CCCC2OC12C(O)CCc1ccccc1 (stereo not given)	-0.0238
CC(C)(C)N1C(=O)[C@H]2[C@H]3[C@H](O)[C@H](O)CC(=NOCc4ccccc4)[C@@H]3CC[C@H]2C1=O	-0.0735
CCc1cc2c(nc1CC)CCN(CCC(C)=NOC[C@@H](O)COCc1ccco1)C2	0.183
COC(=O)CC=C[C@@H](C)[C@@H](C=NO[C@H](C)c1cn([C@@H]2COC[C@H]2O)nn1)OC	-0.0206
